Origin of values: paper PMC11249646

Biological target: CIB1 and αIIb interaction (CIB1-GST : F-αIIb peptide) (Homo sapiens)
Construct: made in house; host or cells: BL-21 plus RIL cells (E. coli)
Sequence (Q99828 1-191): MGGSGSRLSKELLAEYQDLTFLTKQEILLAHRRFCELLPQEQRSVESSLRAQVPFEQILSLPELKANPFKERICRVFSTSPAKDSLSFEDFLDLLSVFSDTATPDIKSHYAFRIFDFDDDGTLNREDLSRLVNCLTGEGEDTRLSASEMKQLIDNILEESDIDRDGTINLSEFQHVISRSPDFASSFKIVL
Experiment: FP assay, 1536-well qHTS format (primary and confirmatory screen)
Type: binding
Conditions: Table S3, confirmatory screen; negative = inhibition
Rule: yes for Efficacy (%) (confirmatory screen) not less than -20%, no for anything less.

compound=Cc1ccc2c(c1)/C(=C\C(=O)c1cccs1)C(=O)N2.O=C(O)C(F)(F)F assigned_class=no
compound=O=C(O)C(F)(F)F.O=S(=O)(Nc1ccc(N2CCNCC2)cc1)c1ccc(NCc2ccc(Br)cc2O)cc1 assigned_class=no
compound=Cc1c(Cc2ccc3ccccc3n2)c2cc(F)ccc2n1CC(=O)O assigned_class=no
compound=Cc1ccc([N+](=O)[O-])[c]2c1[O][Hg]2 assigned_class=yes
compound=CN(C)CCc1c[nH]c2cccc(O)c12 assigned_class=no
compound="O=C(O)C(F)(F)F.O=C1CCCC2=C1C(c1n[nH]cc1Cl)NC(Nc1nc3ccccc3o1)=N2 (stereo not drawn)" assigned_class=no
compound=O=C(O)c1ccccc1SC1=NS(=O)(=O)c2ccccc21 assigned_class=no
compound=OCc1ccc(-c2ccc(-c3ccc(CO)s3)o2)s1 assigned_class=yes
compound=CC(C)(O)CCc1ccc(OCc2cc(-c3cccc(OC(F)F)c3)c3ncccc3c2)cc1 assigned_class=no
compound=CN(C)CCCNC(=O)c1ccc(-c2cc(O)c3ncccc3c2)cc1 assigned_class=yes
compound="O=C(Cc1ccccc1)NC(c1ccco1)c1cc(Cl)c2cccnc2c1O.O=C(O)C(F)(F)F (stereo not drawn)" assigned_class=no
compound=O=C(O)C(F)(F)F.O=C(O)c1ccc(Cc2c(-c3cccc(-c4ccccc4)c3)nn(-c3nc(C(=O)O)cs3)c2O)cc1 assigned_class=no
compound=O=C(O)C(F)(F)F.Oc1cccc2cc(N3CCCC3)cnc12 assigned_class=yes
compound=O=C(NCCCN1CCNCC1)c1cccc(-c2cc(O)c3ncccc3c2)c1.O=C(O)C(F)(F)F assigned_class=no
compound=O=C(O)C(F)(F)F.O=C1Nc2ccccc2/C1=N/NC(=S)Nc1ccc(C(=O)O)cc1 assigned_class=no
compound=CN1CCc2cccc3c2[C@H]1Cc1ccc(O)c(O)c1-3 assigned_class=yes
compound="COc1ccc(CC(NC(C)=O)C(=O)O)cc1 (stereo not drawn)" assigned_class=no
compound=CC(=O)Nc1sc2c(c1-c1nc3ccccc3s1)CNC2.O=C(O)C(F)(F)F assigned_class=no
compound="Nc1nc2c(s1)C(c1ccccc1)CC(=O)N2 (stereo not drawn)" assigned_class=no
compound=O=C(O)C(F)(F)F.O=C(O)c1ccc(-c2ccc3ncnc(N4CCOCC4)c3c2)o1 assigned_class=no
compound=CC(C)c1ccc(NC(=S)N/N=C2\C(=O)Nc3ccccc32)cc1.O=C(O)C(F)(F)F assigned_class=no
compound="Nc1nc2c(s1)C(c1ccccc1C(F)(F)F)CC(=O)N2.O=C(O)C(F)(F)F (stereo not drawn)" assigned_class=yes
compound=O=C(O)C(F)(F)F.O=C1Nc2ccccc2/C1=N/NC(=S)Nc1ccc(O)cc1 assigned_class=no
compound=CO[C@@]12[C@H](COC(N)=O)C3=C(C(=O)C(C)=C(N)C3=O)N1C[C@@H]1N[C@@H]12 assigned_class=no
compound=CC(=O)Nc1sc2c(c1-c1nc3ccccc3o1)CCN(C(C)C)C2.O=C(O)C(F)(F)F assigned_class=no
compound="Cc1ccc(C(=O)NC(c2ccco2)c2cc(Cl)c3cccnc3c2O)cc1 (stereo not drawn)" assigned_class=yes
compound="CC(=O)c1c(O)cc2c(c1C)C(=O)CC(O)C2 (stereo not drawn)" assigned_class=no
compound=O=C([O-])c1c(Cl)c(Cl)c(Cl)c(Cl)c1-c1c2cc(I)c(=O)c(I)c-2oc2c(I)c(O)c(I)cc12.[Na+] assigned_class=yes
compound=O=C(O)C(F)(F)F.O=S(=O)(NCc1nccs1)c1ccc(Nc2nc(-c3ccccc3)cs2)cc1 assigned_class=no
compound=COc1ccccc1Nc1ccc2c(O)cc(S(=O)(=O)O)cc2c1.O=C(O)C(F)(F)F assigned_class=no
compound="CC(=O)c1c(O)cc2cccc3c2c1CC(C)(O)O3 (stereo not drawn)" assigned_class=no
compound=O=C(O)c1csc(-n2nc(-c3ccc(F)c(F)c3)c3cccnc32)n1 assigned_class=yes
compound=CCCCNC(=S)N/N=C1\C(=O)Nc2ccccc21.O=C(O)C(F)(F)F assigned_class=no
